Tested on: HL60 cells
procedure-details: 72 h single agent cytotoxicity, alamar blue assay
Format: cell-based
condition: Homo sapiens; HL-60 cells; read-out: IC50
readout: IC50 (nM)
Answer in nM, number only, no unit symbol.

Measured IC50 for this entry N#C[C@H]1[C@H](O)[C@@H](CO)O[C@H]1n1ccc(N)nc1=O [CNDAC] on HL60 cells: 130

Hey, just so you know, these numbers are from patent US10226478B2.
